Read-out: CD40, CD40 (gene 958)
Experiment: BSK_SAg_CD40: BioMAP Diversity Plus: SAg Assay for CD40 Biomarker Activity (AID 2283088)
Details: primary human HUVEC with PBMC; actives raise or lower the signal
Calls of active or inactive are those of the source. How the source made its calls: active means hit-call score of the fitted dose curve at least 0.9, where 1 is the maximum; inactive means score below 0.9.
Outcome field: choose from TRUE (active), FALSE (inactive)

# count of solved cases: 3
- Compound: "CCN(CC)c1ccc(C=O)c(O)c1"
  Group Label: "FALSE"
- Compound: "OC(O)C(F)(F)C(F)(F)F"
  Group Label: "FALSE"
- Compound: "O=S(=O)(Cl)C(F)(F)C(F)(F)C(F)(F)C(F)(F)C(F)(F)C(F)(F)C(F)(F)C(F)(F)F"
  Group Label: "FALSE"

For `NC(=O)C(F)(F)C(F)(F)C(F)(F)C(F)F` , which call appears in the assay record? FALSE

For `C=C(C)C(=O)OCC(F)(F)C(F)(F)C(F)(F)C(F)F` , which call appears in the assay record? FALSE

For `Brc1nc2ccccc2s1` , which call appears in the assay record? FALSE

For `CCN(CC)c1ccc2c(c1)Oc1cc(N(CC)CC)ccc1C21OC(=O)c2ccccc21` , which call appears in the assay record? FALSE

For `Cc1cc(O)c(C(C)(C)C)cc1C(C)(C)C` , which call appears in the assay record? TRUE

====

Read-out: Thrombomodulin, THBD (gene 7056)
Assay: BSK_CASM3C_Thrombomodulin: BioMAP Diversity Plus: CASM3C Assay for Thrombomodulin Biomarker Activity (AID 2283051);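 further: thrombomodulin protein level measured by ELISA 24 h after dosing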
Conditions: primary human coronary artery smooth muscle cells; actives raise or lower the signal
Calls of active or inactive are those of the source. Rule for the calls: active = hit-call score of the fitted dose curve at least 0.9, where 1 is the maximum; inactive = score below 0.9.
Outcome field: choose from YES (active), NO (inactive)

# count of solved cases: 5
- Compound: "NS(=O)(=O)C(F)(F)C(F)(F)C(F)(F)C(F)(F)C(F)(F)C(F)(F)F"
  Group Label: "NO"
- Compound: "O=S(=O)(O)CCC(F)(F)C(F)(F)C(F)(F)C(F)(F)F"
  Group Label: "NO"
- Compound: "CCOC(=O)CC(=O)C(F)(F)C(F)(F)F"
  Group Label: "NO"
- Compound: "CCN(CC)c1ccc(C=O)cc1"
  Group Label: "NO"
- Compound: "NC(=O)C(F)(F)C(F)(F)C(F)(F)C(F)(F)C(N)=O"
  Group Label: "NO"

For `OCC(F)(F)C(F)(F)C(F)(F)C(F)(F)C(F)(F)C(F)(F)CO` , which call appears in the assay record? NO

For `NC(O)(C(F)(F)F)C(F)(F)F` , which call appears in the assay record? NO

For `O=C(F)C1(F)C(F)(F)C(F)(F)C(F)(F)C(F)(F)C1(F)F` , which call appears in the assay record? NO

====

Read-out: Human Leukocyte Antigen - DR isotype (HLADR), HLA-DRA (gene 3122)
Experiment: BSK_3C_HLADR: BioMAP Diversity Plus: 3C Assay for Human Leukocyte Antigen - DR isotype (HLADR) Biomarker Activity (AID 2283019);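 further: ELISA of cell-surface HLA-DR on HUVEC 24 h after dosing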
Conditions: primary human endothelial cells (HUVEC); actives raise or lower the signal
Activity calls are given as the source filed them. The calls were made as follows: active = hit-call score of the fitted dose curve at least 0.9, where 1 is the maximum; inactive = score below 0.9.
Outcome field: choose from y (active), n (inactive)

# count of solved cases: 4
- Compound: "COC(F)(C(F)F)C(F)(F)F (centres undefined)"
  Group Label: "n"
- Compound: "NC(=O)C(F)(F)C(F)(F)C(F)(F)C(F)(F)C(N)=O"
  Group Label: "n"
- Compound: "Cc1cnccn1"
  Group Label: "n"
- Compound: "O=C(O)C(F)(F)C(F)(F)C(F)(F)C(F)(F)C(F)(F)C(F)(F)C(F)F"
  Group Label: "n"

Now for a further compound.
For `Cc1ccc(O)c(-n2nc3ccccc3n2)c1` , which call appears in the assay record? n

====

Read-out: Macrophage colony-stimulating factor (MCSF), CSF1 (gene 1435)
Test: BSK_CASM3C_MCSF: BioMAP Diversity Plus: CASM3C Assay for Macrophage colony-stimulating factor (MCSF) Biomarker Activity (AID 2283044);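 further: M-CSF protein amount quantified by ELISA after 24 h exposure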
Conditions: primary human coronary artery smooth muscle cells; actives raise or lower the signal
The source made the active and inactive calls. How the source made its calls: active means hit-call score of the fitted dose curve at least 0.9, where 1 is the maximum; inactive means score below 0.9.
Observable: AC50

Worked cases, answers included:
- Molecule: "O=C(O)C(F)(F)C(F)(F)C(F)(F)OC(F)(F)F"
  AC50: "inactive"
- Molecule: "OCC(O)CC(F)(F)C(F)(F)C(F)(F)C(F)(F)F (stereo not given)"
  AC50: "inactive"
- Molecule: "CCOC(=O)CC(=O)C(F)(F)C(F)(F)F"
  AC50: "inactive"
- Molecule: "O=C(Cl)C(F)(F)C(F)(F)C(F)(F)C(F)(F)C(F)(F)C(F)(F)F"
  AC50: "inactive"
- Molecule: "CCN(CC)c1ccc(C=O)c(O)c1"
  AC50: "inactive"
- Molecule: "O=C1C=CC(=O)N1c1ccc(Cc2ccc(N3C(=O)C=CC3=O)cc2)cc1"
  AC50: "5.07 µM (active)"
- Molecule: "O=S(=O)(Cl)C(F)(F)C(F)(F)C(F)(F)C(F)(F)C(F)(F)C(F)(F)C(F)(F)C(F)(F)F"
  AC50: "inactive"
- Molecule: "Brc1nc2ccccc2s1"
  AC50: "inactive"

Can you share its AC50? I mean this molecule: `CCN(CC)c1ccc(N=Nc2ccccc2)cc1` inactive

Can you share its AC50? I mean this molecule: `Cc1cnccn1` inactive

====

Assay: ATG_SREBP_CIS: Attagene CIS-FACTORIAL HepG2 Assay for human Sterol Regulatory Element Binding (SREBP) (AID 2282962)
Conditions: HepG2 Attagene cis-factorial SREBP reporter, mRNA; actives raise or lower the signal
Activity calls are given as the source filed them. The calls were made as follows: active = hit-call score of the fitted dose curve at least 0.9, where 1 is the maximum; inactive = score below 0.9.
Outcome field: choose from active, inactive

# count of solved cases: 4
- Mol Smiles: "Cc1ccc(O)c(-n2nc3ccccc3n2)c1"
  Group Label: "inactive"
- Mol Smiles: "Brc1nc2ccccc2s1"
  Group Label: "inactive"
- Mol Smiles: "Cc1cc(O)c(C(C)(C)C)cc1C(C)(C)C"
  Group Label: "active"
- Mol Smiles: "Cc1cnccn1"
  Group Label: "inactive"

Now for a further molecule.
For `Cc1cc(=O)[nH]c(C(C)C)n1` , which call appears in the assay record? inactive

====

Test: BSK_4H_Eotaxin3: BioMAP Diversity Plus: 4H Assay for Eotaxin 3 Biomarker Activity (AID 2283000);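 on Outcome: CCL26 protein level quantified by ELISA in parallel with SRB cytotoxicity check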
Details: primary human endothelial cells (HUVEC); actives raise or lower the signal
Activity calls are given as the source filed them. How the source made its calls: active means hit-call score of the fitted dose curve at least 0.9, where 1 is the maximum; inactive means score below 0.9.
Outcome field: choose from y (active), n (inactive)

# count of solved cases: 5
- Molecule: "NCC(F)(F)C(F)(F)C(F)(F)C(F)(F)C(F)(F)C(F)(F)F"
  Group Label: "n"
- Molecule: "O=C(O)C(F)(F)C(F)(F)C(F)(F)C(F)(F)C(F)(F)C(F)(F)C(F)F"
  Group Label: "n"
- Molecule: "O=C(O)C(F)(F)C(F)(F)C(F)(F)OC(F)(F)F"
  Group Label: "n"
- Molecule: "C=C(C)C(=O)OCC(F)(F)C(F)(F)C(F)(F)C(F)F"
  Group Label: "n"
- Molecule: "COC(F)(C(F)F)C(F)(F)F (configuration not stated)"
  Group Label: "n"

For `O=C(F)C1(F)C(F)(F)C(F)(F)C(F)(F)C(F)(F)C1(F)F` , which call appears in the assay record? n

For `Cc1cc(O)c(C(C)(C)C)cc1C(C)(C)C` , which call appears in the assay record? y

For `CCOC(=O)CC(=O)C(F)(F)C(F)(F)F` , which call appears in the assay record? n

For `NC(O)(C(F)(F)F)C(F)(F)F` , which call appears in the assay record? n

====

Assay: CCTE_Padilla_ZF_Score.Swim_bladder: CCTE's 144 Hour Post-fertilization zebrafish Assay Score for Swim Bladder Malformation, Padilla Lab (AID 2284408)
The source made the active and inactive calls. How the source made its calls: active means hit-call score of the fitted dose curve at least 0.9, where 1 is the maximum; inactive means score below 0.9.
Outcome field: choose from true (active), false (inactive)

- Compound: "OCC(F)(F)C(F)(F)C(F)(F)C(F)(F)C(F)(F)C(F)(F)C(F)(F)C(F)(F)CO"
  Group Label: "true"
- Compound: "NCC(F)(F)C(F)(F)C(F)(F)C(F)(F)C(F)(F)C(F)(F)F"
  Group Label: "false"
- Compound: "O=C(O)C(F)(F)C(F)(F)C(F)(F)C(=O)O"
  Group Label: "false"
- Compound: "CO[Si](C)(CCC(F)(F)C(F)(F)C(F)(F)C(F)(F)C(F)(F)C(F)(F)F)OC"
  Group Label: "false"
- Compound: "O=C(O)CCC(F)(F)C(F)(F)C(F)(F)C(F)(F)C(F)(F)C(F)(F)C(F)(F)F"
  Group Label: "false"
- Compound: "O=C(F)C1(F)C(F)(F)C(F)(F)C(F)(F)C(F)(F)C1(F)F"
  Group Label: "false"
- Compound: "O=C(O)CCC(F)(F)C(F)(F)C(F)(F)F"
  Group Label: "false"
- Compound: "OCCCCC(F)(F)C(F)(F)C(F)(F)C(F)(F)F"
  Group Label: "true"

For `OCC(F)(F)C(F)(F)C(F)(F)CO` , which call appears in the assay record? false

For `NC(O)(C(F)(F)F)C(F)(F)F` , which call appears in the assay record? false

For `O=C(O)C(F)(F)C(F)(F)C(F)(F)C(F)(F)C(F)(F)C(F)(F)C(F)F` , which call appears in the assay record? false

For `NC(=O)C(F)(F)C(F)(F)C(F)(F)F` , which call appears in the assay record? false

For `C[Si](Cl)(Cl)CCC(F)(F)C(F)(F)C(F)(F)C(F)(F)C(F)(F)C(F)(F)F` , which call appears in the assay record? false
